Where do these numbers come from? They come from ChEMBL document CHEMBL4334473.

Tested on: HCT-116
PROTOCOL_DETAILS: Cytotoxicity against human HCT116 cells assessed as cell growth inhibition after 72 hrs by alamar blue assay
Format: functional, cell-based
EXPERIMENTAL_CONDITIONS: HCT-116, 72 h
MEASURED_QUANTITY: pIC50
Just so you know, pIC50 here is -log10 of the concentration in molar units; reply with that number alone.

Example cases with answers are listed next.
| COMPOUND | EXPERIMENTAL_VALUE |
| --- | --- |
| COc1cc2c(cc1OC)-c1c3c(cc4c1[C@H](C2)N(C)CC4)OCO3 | 5.06 |
| COc1cccc2c1C(=O)c1c(O)c3c(c(O)c1C2=O)C[C@@](O)(C(=O)CO)C[C@@H]3O[C@H]1C[C@H](N)[C@H](O)[C@H](C)O1 | 6.52 |
| COc1cc2c(cc1OC)[C@H](O)[C@@H]1c3c(cc4c(c3-2)OCO4)CC[N+]1(C)[O-] (stereo not given in full) | 5.04 |

Now look at this entry.
Query :: Recall the recorded pIC50 for COc1cc2c(cc1OC)[C@@H](O)[C@@H]1NCCc3cc4c(c-2c31)OCO4 with HCT-116 and state it.
Result :: 5.40
